Tested on: PCSK9 gene
Assay: PCSK9 gRNA/SpCas9 editing in primary cynomolgus hepatocytes (Tables 2, 22)
Format: cell-based, cynomolgus monkey
Conditions: 2500 ng/RNA/mL; SpCas9 mRNA MS002 1:1 by weight
m = 2'-O-methyl; r = 2'-OH (RNA)
ENDPOINT_LABEL: Cyno Primary Hepatocyte Editing % 2500 (%)
Field: numeric (%). Do not append units.

>  <MOLECULE>
GA166: PCSK9 gRNA; protospacer CGCCCGTGCGCAGGAGGACG (SEQ ID NO: 160) (nucleic acid, sugars from the 5' end m3 r94 m3, linkages s3 o93 s3 (s phosphorothioate, o phosphodiester), T or U not given here) guide: CGCCCGUGCGCAGGAGGACGGUUUUAGAGCUAGAAAUAGCAAGUUAAAAUAAGGCUAGUCCGUUAUCAACUUGAAAAAGUGGCACCGAGUCGGUGCUUUU

>  <UNIT_ABBREV>
%

>  <Cyno Primary Hepatocyte Editing % 2500>
44.77

$$$$

As a next step, examine the molecule that follows.
Query block: For the molecule GA219: PCSK9 gRNA; protospacer GGCAGGGGTGGTCAGCGGCC (SEQ ID NO: 213) (nucleic acid, sugars from the 5' end m3 r94 m3, linkages s3 o93 s3 (s phosphorothioate, o phosphodiester), T or U not given here) guide: GGCAGGGGUGGUCAGCGGCCGUUUUAGAGCUAGAAAUAGCAAGUUAAAAUAAGGCUAGUCCGUUAUCAACUUGAAAAAGUGGCACCGAGUCGGUGCUUUU , what Cyno Primary Hepatocyte Editing % 2500 is on record?
Result block: 48.67
